System: emLYPLA2
Assay: LYPLA1 and LYPLA2 inhibitors, biochemical, gel-based ABPP, fluorescence, recombinant and endogenous enzyme (AID 493105)
Conditions: fluorescent probe labeling, membrane fraction, at 20 µM, stronger effect = higher value
Lab note: compare inhibition against 2%. Equal or greater, write YES. Smaller, write NO.

Consider the following illustrative entries.
- given_smiles: "Cc1ccc(CN2CCN(/N=C/C=C/c3ccccc3[N+](=O)[O-])CC2)cc1"
  study_system: "emLYPLA2"
  cat: "YES"
- given_smiles: "Cc1c(Br)c([N+](=O)[O-])nn1CC(=O)Nc1ccc(Cc2ccncc2)cc1"
  study_system: "emLYPLA2"
  cat: "YES"
- given_smiles: "CC(=O)N1CCC2(CC1)C/C(=N\\NC(=S)Nc1ccccc1C)c1cc(O)ccc1O2"
  study_system: "emLYPLA2"
  cat: "YES"

Turning now to a further compound:
Enquiry: Is inhibition at least 2%? Consider Cc1ccc(N2CCN(C3=NC(=O)/C(=C\c4cccs4)S3)CC2)cc1
Return: NO
